target: menin (Homo sapiens, UniProt O00255, T541A); construct: Menin (a.a. 1-610-6×his tag); assay: Menin/MLL homogenous time-resolved fluorescence (HTRF) assay; format: binding; conditions: location 2; read-out: (2) location 2 Menin HTRF assay (IC50 (nM))
Response field label: string, one of Criterion met (IC50 strictly below 10 nM) or Criterion not met.

For orientation, consider the following solved cases.
Strictly below 10 nM in IC50? CS(=O)(=O)Cc1ccc(NC2CC3(CCN(c4ncnc5sc(CC(F)(F)F)cc45)C3)C2)cc1 (mixture of isomers) [Compound 344]
Criterion not met

Strictly below 10 nM in IC50? FC(F)(F)Cc1cc2c(N3CC[C@@]4(CC[C@H](Nc5ccc(-c6cc[nH]n6)cc5)C4)C3)ncnc2s1 (stereo in doubt) [Compound 140]
Criterion not met

Strictly below 10 nM in IC50? O=C(c1ccc(NC2CC3(CCN(c4ncnc5sc(CC(F)(F)F)cc45)C3)C2)cc1)N1CCOCC1 (mixture of isomers) [Compound 333]
Criterion not met

Strictly below 10 nM in IC50? FC(F)(F)Cc1cc2c(N3CCC4(CC(Nc5ccncc5)C4)C3)ncnc2s1 (stereo not shown) [Compound 154]
Criterion not met

Strictly below 10 nM in IC50? O=S(=O)(c1ccc(NC2CC3(CCN(c4ncnc5sc(CC(F)(F)F)cc45)C3)C2)cc1)N1CCOCC1 (single isomer, unassigned) [Compound 219]
Criterion met

---
Strictly below 10 nM in IC50? CNC(=O)c1ccc(NC2CC3(CCN(c4ncnc5sc(CC(F)(F)F)cc45)C3)C2)nc1 (single isomer, unassigned) [Compound 72]
Criterion met

Strictly below 10 nM in IC50? N#CCc1ccc(NC2CCC3(C2)CN(c2nc(N)nc4sc(CC(F)(F)F)cc24)C3)cc1 (single isomer, unassigned) [Compound 388]
Criterion not met

Strictly below 10 nM in IC50? O=c1[nH]c2ccc(N[C@@H]3CCC4(C3)CN(c3ncnc5sc(CC(F)(F)F)cc35)C4)cc2[nH]1 (single isomer, unassigned) [Compound 299]
Criterion not met

Strictly below 10 nM in IC50? COC[C@H]1COCCN1C(=O)c1ccc(NC2CC3(CCN(c4ncnc5sc(CC(F)(F)F)cc45)C3)C2)cc1 (single isomer, unassigned) [Compound 408]
Criterion not met

###

Recorded IC50, one value per entry.
target: menin (Homo sapiens, UniProt O00255, T541A); construct: Menin (a.a. 1-610-6×his tag); assay: Menin/MLL homogenous time-resolved fluorescence (HTRF) assay; type: binding; details: location 2; read-out: (2) location 2 Menin HTRF assay (IC50 (nM))

Solved entries:
Endpoint output: IC50 of Cc1noc2cc(NC3CC4(CCN(c5ncnc6sc(CC(F)(F)F)cc56)C4)C3)ccc12 (mixture of isomers) . Value?
62 nM

Endpoint output: IC50 of Cc1nc(N2CCC3(CC(NCc4ccccc4)C3)C2)c2cc(CC(F)(F)F)sc2n1 (single isomer, unassigned) [Compound 262] . Value?
15.1 nM

---
Endpoint output: IC50 of O=C1OCCN1c1ccc(NC2CC3(CCN(c4ncnc5sc(CC(F)(F)F)cc45)C3)C2)cc1 (mixture of isomers) . Value?
6.8 nM

Endpoint output: IC50 of CS(=O)(=O)N1CCC(CNC(=O)c2ccc(NC3CC4(CCN(c5ncnc6sc(CC(F)(F)F)cc56)C4)C3)cc2)CC1 (mixture of isomers) . Value?
16.2 nM

Endpoint output: IC50 of N#CCc1ccc(NC2CC3(CCN(c4nc(N)nc5sc(CC(F)(F)F)cc45)C3)C2)cc1 (single isomer, unassigned) [Compound 378] . Value?
42.9 nM

Endpoint output: IC50 of CS(=O)(=O)NC(=O)c1ccc(NC2CC3(CCN(c4ncnc5sc(CC(F)(F)F)cc45)C3)C2)cc1 (single isomer, unassigned) [Compound 362] . Value?
836 nM

###

Target: menin (Homo sapiens, UniProt O00255, T541A)
Construct: Menin (a.a. 1-610-6×his tag)
Sequence (O00255 with tags, fused parts or gaps T541A): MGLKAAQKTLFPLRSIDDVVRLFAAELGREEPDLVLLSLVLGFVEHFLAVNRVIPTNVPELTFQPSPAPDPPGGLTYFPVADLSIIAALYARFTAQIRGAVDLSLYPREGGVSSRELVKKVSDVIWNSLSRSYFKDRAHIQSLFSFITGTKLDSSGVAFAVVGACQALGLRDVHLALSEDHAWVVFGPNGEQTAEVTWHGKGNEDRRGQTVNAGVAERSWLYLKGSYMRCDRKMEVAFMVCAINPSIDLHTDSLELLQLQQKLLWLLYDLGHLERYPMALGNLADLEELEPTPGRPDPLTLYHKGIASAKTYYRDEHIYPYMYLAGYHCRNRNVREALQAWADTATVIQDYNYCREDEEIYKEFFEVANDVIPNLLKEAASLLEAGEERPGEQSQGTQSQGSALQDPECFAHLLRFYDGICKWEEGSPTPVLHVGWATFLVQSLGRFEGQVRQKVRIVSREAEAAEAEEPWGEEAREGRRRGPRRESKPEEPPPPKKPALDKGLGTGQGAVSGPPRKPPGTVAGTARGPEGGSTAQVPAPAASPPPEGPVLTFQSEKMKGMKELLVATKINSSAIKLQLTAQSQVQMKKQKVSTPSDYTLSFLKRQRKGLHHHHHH
Assay: Menin/MLL homogenous time-resolved fluorescence (HTRF) assay
Assay type: binding
Details: location 2; read-out: (2) location 2 Menin HTRF assay (IC50 (nM))
READOUT: IC50 (nM)
Supply the numeric figure in nM, leaving out any unit text.

Solved entries:
Endpoint output: IC50 of CNC(=O)c1ccc(NC2CC3(CCN(c4ncnc5sc(CC(F)(F)F)cc45)C3)C2)cc1 (single isomer, unassigned) [Compound 94] . Value?
3.6

Endpoint output: IC50 of Nc1nc(N2CCC3(CC(Nc4ccc5[nH]c(=O)oc5c4)C3)C2)c2cc(CC(F)(F)F)sc2n1 (mixture of isomers) [Compound 384] . Value?
32.6

Endpoint output: IC50 of O=C1CN(C(=O)c2ccc(NC3CC4(CCN(c5ncnc6sc(CC(F)(F)F)cc56)C4)C3)cc2)CCN1 (stereo not shown) [Compound 104] . Value?
16.6

Endpoint output: IC50 of CNC(=O)c1ccc(NC2CC3(CCN(c4nc(NC)nc5sc(CC(F)(F)F)cc45)C3)C2)cc1 (stereo not shown) [Compound 64] . Value?
2.4

Endpoint output: IC50 of N#CCc1cccc(C(=O)NC2CC3(CCN(c4ncnc5sc(CC(F)(F)F)cc45)C3)C2)c1 (stereo not shown) . Value?
1010

---
Endpoint output: IC50 of O=c1cc(NC2CC3(CCN(c4ncnc5sc(CC(F)(F)F)cc45)C3)C2)cc[nH]1 (mixture of isomers) . Value?
576

Endpoint output: IC50 of COC[C@H]1COCCN1C(=O)c1ccc(NC2CC3(CCN(c4ncnc5sc(CC(F)(F)F)cc45)C3)C2)cc1 (single isomer, unassigned) [Compound 407] . Value?
1020

Endpoint output: IC50 of CNC(=O)c1ccc(NC2CC3(CCN(c4nc(NC)nc5sc(CC(F)(F)F)cc45)C3)C2)cc1 (single isomer, unassigned) [Compound 65] . Value?
133

Endpoint output: IC50 of CNC(=O)c1ccc(NC2CC3(CCN(c4ncnc5sc(CC(F)(F)F)cc45)C3)C2)c(Cl)c1 (single isomer, unassigned) [Compound 68] . Value?
39.6

Endpoint output: IC50 of CNc1nc(N2CC3(CCC(Nc4ccc5[nH]c(=O)[nH]c5c4)C3)C2)c2cc(CC(F)(F)F)sc2n1 (stereo not shown) . Value?
906

Endpoint output: IC50 of O=c1[nH]c2ccc(NC3CC4(CCN(c5ncnc6sc(CC(F)(F)F)cc56)C4)C3)cc2o1 (single isomer, unassigned) [Compound 323] . Value?
26.4

Endpoint output: IC50 of O=c1[nH]c2ccc(NC3CC4(CCN(c5ncnc6sc(CC(F)(F)F)cc56)C4)C3)cc2[nH]1 (single isomer, unassigned) [Compound 320] . Value?
41.6

Endpoint output: IC50 of CC1CN(C(=O)c2ccc(NC3CC4(CCN(c5ncnc6sc(CC(F)(F)F)cc56)C4)C3)cc2)CC(C)O1 (single isomer, unassigned) [Compound 406] . Value?
36

###

Recorded IC50, one value per entry.
Target: menin (Homo sapiens, UniProt O00255, T541A)
Construct: Menin (a.a. 1-610-6×his tag)
Sequence (O00255 with tags, fused parts or gaps T541A): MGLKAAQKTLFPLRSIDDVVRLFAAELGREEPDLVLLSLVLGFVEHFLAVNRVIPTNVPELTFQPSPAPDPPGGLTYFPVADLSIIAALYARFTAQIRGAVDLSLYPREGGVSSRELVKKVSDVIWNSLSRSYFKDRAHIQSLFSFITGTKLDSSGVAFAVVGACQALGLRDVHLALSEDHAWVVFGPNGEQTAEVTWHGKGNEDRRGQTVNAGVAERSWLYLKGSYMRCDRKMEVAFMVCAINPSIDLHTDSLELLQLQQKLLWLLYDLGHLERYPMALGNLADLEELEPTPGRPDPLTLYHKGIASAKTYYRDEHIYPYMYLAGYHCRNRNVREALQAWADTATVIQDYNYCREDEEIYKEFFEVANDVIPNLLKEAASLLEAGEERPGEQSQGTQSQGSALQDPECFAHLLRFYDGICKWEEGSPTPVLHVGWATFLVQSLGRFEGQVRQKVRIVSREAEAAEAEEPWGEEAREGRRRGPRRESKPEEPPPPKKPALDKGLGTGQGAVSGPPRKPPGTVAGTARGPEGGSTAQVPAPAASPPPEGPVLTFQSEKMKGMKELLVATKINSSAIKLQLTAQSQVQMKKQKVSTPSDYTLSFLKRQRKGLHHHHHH
Assay: Menin/MLL homogenous time-resolved fluorescence (HTRF) assay
Assay type: binding
Conditions: location 2; read-out: (2) location 2 Menin HTRF assay (IC50 (nM))
Supply the numeric figure in nM, leaving out any unit text.

Solved entries:
Endpoint output: IC50 of CN(CC1CC2(CCN(c3ncnc4sc(CC(F)(F)F)cc34)C2)C1)c1cnn(C)c1 (mixture of isomers) . Value?
2350

Endpoint output: IC50 of CN1CC=C(c2cc(NC3CC4(CCN(c5ncnc6sc(CC(F)(F)F)cc56)C4)C3)ccc2C(C)(C#N)C#N)CC1 (single isomer, unassigned) [Compound 246] . Value?
206

Endpoint output: IC50 of CNC(=O)c1cnc(NC2CC3(CCN(c4ncnc5sc(CC(F)(F)F)cc45)C3)C2)cn1 (single isomer, unassigned) [Compound 418] . Value?
749

Endpoint output: IC50 of O=c1[nH]c2ccc(CNC3CCC4(C3)CN(c3ncnc5sc(CC(F)(F)F)cc35)C4)cc2[nH]1 (single isomer, unassigned) [Compound 109] . Value?
1.6

Endpoint output: IC50 of CN1CCC(Nc2cc(NC3CC4(CCN(c5ncnc6sc(CC(F)(F)F)cc56)C4)C3)ccc2C#N)CC1 (centres unmarked) . Value?
73.6

Endpoint output: IC50 of CC(C#N)(C#N)c1ccc(NC2CC3(CCN(c4ncnc5sc(CC(F)(F)F)cc45)C3)C2)cc1 (single isomer, unassigned) [Compound 235] . Value?
4.1

Endpoint output: IC50 of CC(C#N)(C#N)c1ccc(NC2CC3(CCN(c4ncnc5sc(CC(F)(F)F)cc45)C3)C2)cc1 (single isomer, unassigned) [Compound 234] . Value?
116

Endpoint output: IC50 of O=C(NCCN1CCOCC1)c1ccc(NC2CC3(CCN(c4ncnc5sc(CC(F)(F)F)cc45)C3)C2)cc1 (centres unmarked) [Compound 87] . Value?
191

---
Endpoint output: IC50 of CNC(=O)c1ccc(NC2CC3(CCN(c4ncnc5sc(CC(F)(F)F)cc45)C3)C2)cc1OCCN(C)C (single isomer, unassigned) [Compound 77] . Value?
1.8

Endpoint output: IC50 of O=c1[nH]c2ccc(NC3CCC4(C3)CN(c3ncnc5sc(CC(F)(F)F)cc35)C4)cc2o1 (centres unmarked) . Value?
97.7

Endpoint output: IC50 of FC(F)(F)Cc1cc2c(N3CC4(CCC(NC5(c6ccccc6)CC5)C4)C3)ncnc2s1 (centres unmarked) . Value?
92.8

Endpoint output: IC50 of Cc1nc(N2CC3(CCC(NCc4ccc5[nH]c(=O)[nH]c5c4)C3)C2)c2cc(CC(F)(F)F)sc2n1 (centres unmarked) . Value?
47.9

Endpoint output: IC50 of CNC(=O)c1ccc(NC2CCC3(C2)CN(c2nc(NC)nc4sc(CC(F)(F)F)cc24)C3)cc1 (centres unmarked) . Value?
137

Endpoint output: IC50 of N#CCc1ccc(NC2CC3(CCN(c4nc(N)nc5sc(CC(F)(F)F)cc45)C3)C2)cc1 (single isomer, unassigned) [Compound 379] . Value?
1.4

Endpoint output: IC50 of CNc1nc(N2CCC3(CC(Nc4ccc(CC#N)cc4)C3)C2)c2cc(CC(F)(F)F)sc2n1 (single isomer, unassigned) [Compound 391] . Value?
163

Endpoint output: IC50 of CNc1nc(N2CCC3(CC(Nc4ccc(CC#N)cc4)C3)C2)c2cc(CC(F)(F)F)sc2n1 (mixture of isomers) [Compound 390] . Value?
14.6

Endpoint output: IC50 of FC(F)(F)Cc1cc2c(N3CC4(CCC(Nc5ccc(-c6cc[nH]n6)cc5)C4)C3)ncnc2s1 (centres unmarked) . Value?
32.3

Endpoint output: IC50 of NC(=O)Cc1ccc(NC2CC3(CCN(c4ncnc5sc(CC(F)(F)F)cc45)C3)C2)cc1 (mixture of isomers) . Value?
14.5

Measured values drawn from patent US11396517B1 for this set.
